# testSystem: Melatonin receptor type 1A (Homo sapiens, UniProt P48039)
# Sequence (P48039 whole entry): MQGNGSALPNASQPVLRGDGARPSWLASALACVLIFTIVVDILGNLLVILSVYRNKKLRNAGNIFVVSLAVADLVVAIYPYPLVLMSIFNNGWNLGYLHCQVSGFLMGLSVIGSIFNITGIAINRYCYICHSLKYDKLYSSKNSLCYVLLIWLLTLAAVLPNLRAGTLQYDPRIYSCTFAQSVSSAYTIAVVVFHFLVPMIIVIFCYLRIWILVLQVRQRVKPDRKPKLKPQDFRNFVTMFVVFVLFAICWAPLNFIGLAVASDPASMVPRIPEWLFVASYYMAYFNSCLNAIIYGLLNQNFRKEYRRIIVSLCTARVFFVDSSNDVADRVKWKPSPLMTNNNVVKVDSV
# runDescription: Displacement of [125I]iodomelatonin from human cloned MT1 receptor expressed in […] NIH3T3 cells after 90 mins
# Format: cell-based
pKi: −log10 of the molar value.
endpointLabel: pKi

{"compound": "CC(=O)NCCOc1ccccc1", "testSystem": "Melatonin receptor type 1A (Homo sapiens, UniProt P48039)", "endpointLabel": "pKi", "readoutNumber": 4.94}
{"compound": "CCCC(=O)NCC(C)Sc1cccc(OC)c1 (stereo not given)", "testSystem": "Melatonin receptor type 1A (Homo sapiens, UniProt P48039)", "endpointLabel": "pKi", "readoutNumber": 8.04}
{"compound": "COc1cccc(SCCNC(C)=O)c1", "testSystem": "Melatonin receptor type 1A (Homo sapiens, UniProt P48039)", "endpointLabel": "pKi", "readoutNumber": 7.26}
{"compound": "COc1cccc(S[C@@H](C)CNC(C)=O)c1", "testSystem": "Melatonin receptor type 1A (Homo sapiens, UniProt P48039)", "endpointLabel": "pKi", "readoutNumber": 8.24}
{"compound": "COc1cccc(S[C@@H](C)CNC(=O)C2CC2)c1", "testSystem": "Melatonin receptor type 1A (Homo sapiens, UniProt P48039)", "endpointLabel": "pKi", "readoutNumber": 8.27}
{"compound": "CC(=O)NC(C)COc1ccccc1 (stereo not given)", "testSystem": "Melatonin receptor type 1A (Homo sapiens, UniProt P48039)", "endpointLabel": "pKi", "readoutNumber": 4.92}
{"compound": "COc1cccc(OC[C@@H](C)NC(C)=O)c1", "testSystem": "Melatonin receptor type 1A (Homo sapiens, UniProt P48039)", "endpointLabel": "pKi", "readoutNumber": 4.44}
{"compound": "COc1cccc(S[C@H](C)CNC(=O)C2CC2)c1", "testSystem": "Melatonin receptor type 1A (Homo sapiens, UniProt P48039)", "endpointLabel": "pKi", "readoutNumber": 6.92}
{"compound": "CCCC(=O)NC[C@@H](C)Sc1cccc(OC)c1", "testSystem": "Melatonin receptor type 1A (Homo sapiens, UniProt P48039)", "endpointLabel": "pKi", "readoutNumber": 7.15}
{"compound": "COc1cccc(SC(C)CNC(=O)C2CC2)c1 (stereo not given)", "testSystem": "Melatonin receptor type 1A (Homo sapiens, UniProt P48039)", "endpointLabel": "pKi", "readoutNumber": 8.07}

1. COc1cccc(S[C@H](C)CNC(C)=O)c1
2. CC(=O)N[C@H](C)COc1ccccc1
Task: Larger number for pKi: 1 , or 2 ? Lab note: record the label of whichever item you select.
Result: 1
(1: 5.56, 2: 4.20)

P. COc1ccccc1SCCNC(C)=O
Q. COc1ccc(OC(C)CNC(C)=O)cc1 (stereo not given)
Task: Select one. Lower pKi: P or Q State your choice using its label.
Result: Q
(Q: 4.37, P: 5.44)

P. CCCC(=O)NC[C@H](C)Oc1cccc(OC)c1
Q. COc1cccc(OCC(C)NC(C)=O)c1 (stereo not given)
Task: Dear colleague, could you let me know whether P or Q has the lower recorded pKi? Thanks. Could you answer with the label of the item you picked?
Result: Q

I. COc1cccc(O[C@@H](C)CNC(C)=O)c1
II. CC(=O)NC(C)CSc1ccccc1 (stereo not given)
Task: Could you tell me which of I and II has the lower pKi reading? Refer to your chosen entry by its label in the reply.
Result: II

A. CCCC(=O)NCC(C)Oc1cccc(OC)c1 (stereo not given)
B. COc1cccc(OCCNC(C)=O)c1
Task: Rank A against B by their pKi values and give the higher one. # respond with the chosen item's label
Result: A
(A: 8.38, B: 7.39)
